Assay: NCI Yeast Anticancer Drug Screen. Data for the bub3 strain (AID 167)
Conditions: S. cerevisiae bub3 mutant strain, at 50.0 µM (retest, dose inferred, filed as 5.0)
About 79,000 compounds went through this panel and 15% of them were active in at least one assay; those are over-represented in the sample as a whole. Calls of active or inactive are those of the source. Cut-off read from the data, not from the text of the source: active = growth inhibition above about 70%; inactive = the rest.
Outcomes: active, inactive

>>> class_label("CC(=O)Nc1ccc(/C=C(\\C#N)c2ccc(C)cc2)cc1")
"inactive"
>>> class_label("CCCCCCCCC/C=C/C=C/C(=O)NCC(=O)NC1C(O)C(O)C(Nc2ncnc3nc[nH]c23)OC1C(O)CO (stereo not given)")
"inactive"
>>> class_label("O=C(O)C1OC1(c1cccc(Cl)c1)c1ccccc1Cl (stereo not given)")
"active"
>>> class_label("OC1(c2ccccc2)CSC2=Nc3ccccc3C3CCN1N23 (stereo not given)")
"inactive"
>>> class_label("CCCCCCCCCCCCCCCCCCNC")
"active"
>>> class_label("COc1ccc(OC)c2cc3ccccc3cc12")
"inactive"
>>> class_label("CCCC/C=C/C(CC)(C(=O)OCC)C(=O)OCC")
"inactive"
>>> class_label("O=CNc1ccc2c(c1)C(=O)c1ccccc1-2")
"inactive"
>>> class_label("CN(Cc1cnc2nc(N)nc(N)c2n1)c1ccc(C(=O)N[C@@H](CCC(=O)O)C(=O)O)cc1")
"inactive"
>>> class_label("CSC(=S)N/N=C(\\C)c1cccc(C)n1")
"active"

Where do the numbers come from? From PubChem BioAssay (NCI).
